The entries below are paired with their reported pIC50.
test system: OATP1B3-expressing RKO cells; conditions: human
// scale note: pIC50 = -log10(conc_M); give the bare number

Example entries begin here.
• C/C=C1/NC(=O)CC[C@H](C(=O)O)NC(=O)[C@@H](C)[C@H](/C=C/C(C)=C/[C@H](C)[C@H](Cc2ccccc2)OC)NC(=O)[C@H](Cc2c[nH]c3ccccc23)NC(=O)C[C@H](C(=O)O)NC(=O)[C@H](CCc2ccc(O)cc2)NC(=O)[C@@H](C)NC1=O [compound 20, [D-Asp^3,(E)-Dhb^7]MC-HtyW] = 8.59
• C/C=C1/NC(=O)CC[C@H](C(=O)O)NC(=O)[C@@H](C)[C@H](/C=C/C(C)=C/[C@H](C)[C@H](Cc2ccccc2)OC)NC(=O)[C@H](CCCNC(=N)N)NC(=O)C[C@H](C(=O)O)NC(=O)[C@H](CC(C)CC)NC(=O)[C@@H](C)NC1=O (stereo partly drawn) [compound 4, [D-Asp^3,(E)-Dhb^7]MC-HilR] = 8.42
• C=C1C(=O)N[C@H](C)C(=O)N[C@@H](CC(C)CC)C(=O)N[C@@H](C(=O)O)CC(=O)N[C@@H](CCCNC(=N)N)C(=O)N[C@@H](/C=C/C(C)=C/[C@H](C)[C@H](Cc2ccccc2)OC)[C@H](C)C(=O)N[C@@H](C(=O)O)CCC(=O)N1C (stereo partly drawn) [compound 3, [D-Asp^3]MC-HilR] = 6.85

Attention now shifts to the item below.
**Query** Please provide the recorded pIC50 for CO[C@@H](Cc1ccccc1)[C@@H](C)/C=C(C)/C=C/[C@@H]1NC(=O)[C@H](CCCCNC(=N)N)NC(=O)C[C@H](C(=O)O)NC(=O)[C@H](Cc2ccc(O)cc2)NC(=O)[C@@H](C)NC(=O)[C@H](CO)N(C)C(=O)CC[C@H](C(=O)O)NC(=O)[C@H]1C [compound 21, [D-Asp^3,MSer^7]MC-YHar] , tested on OATP1B3-expressing RKO cells.
**Result** 6.41

====

test system: RKO control cells; settings: 3 h
pIC50: −log10 of the molar value.
value.kind: pIC50

The cases that follow already have their pIC50 on record.
• C/C=C1/NC(=O)CC[C@H](C(=O)O)NC(=O)[C@@H](C)[C@H](/C=C/C(C)=C/[C@H](C)[C@H](Cc2ccccc2)OC)NC(=O)[C@H](CCCNC(=N)N)NC(=O)C[C@H](C(=O)O)NC(=O)[C@H](CC(C)CC)NC(=O)[C@@H](C)NC1=O (stereo partly drawn) [compound 4, [D-Asp^3,(E)-Dhb^7]MC-HilR] = 6.00
• C=C1C(=O)N[C@H](C)C(=O)N[C@@H](CC(C)CC)C(=O)N[C@@H](C(=O)O)CC(=O)N[C@@H](CCCNC(=N)N)C(=O)N[C@@H](/C=C/C(C)=C/[C@H](C)[C@H](Cc2ccccc2)OC)[C@H](C)C(=O)N[C@@H](C(=O)O)CCC(=O)N1C (stereo partly drawn) [compound 3, [D-Asp^3]MC-HilR] = < 6.00
• C/C=C1/NC(=O)CC[C@H](C(=O)O)NC(=O)[C@@H](C)[C@H](/C=C/C(C)=C/[C@H](C)[C@H](Cc2ccccc2)OC)NC(=O)[C@H](Cc2c[nH]c3ccccc23)NC(=O)C[C@H](C(=O)O)NC(=O)[C@H](CCc2ccc(O)cc2)NC(=O)[C@@H](C)NC1=O [compound 20, [D-Asp^3,(E)-Dhb^7]MC-HtyW] = < 7.00

Alright, here's another compound for you.
**Query** Give the measured pIC50 of CO[C@@H](Cc1ccccc1)[C@@H](C)/C=C(C)/C=C/[C@@H]1NC(=O)[C@H](CCCCNC(=N)N)NC(=O)C[C@H](C(=O)O)NC(=O)[C@H](Cc2ccc(O)cc2)NC(=O)[C@@H](C)NC(=O)[C@H](CO)N(C)C(=O)CC[C@H](C(=O)O)NC(=O)[C@H]1C [compound 21, [D-Asp^3,MSer^7]MC-YHar] .
**Result** < 6.00

====

tested on: OATP1B3-expressing RKO cells; conditions: read-out: IC50 RKO B3
Numbered stars: 1 amine (or outer) side, 2 acyl side, 3 side chain; on linkers, the order of the positions; unused ones are H or OH. Bridge positions count the residues as written; N and C are the ends. Square brackets hold non-standard residues; d marks the D form. Peptide text beside a SMILES is read from it. Adda = CO[C@@H](Cc1ccccc1)[C@@H](C)/C=C(C)/C=C/[C@H](N[*:1])[C@H](C)C(=O)[*:2]; dAsp(3S-Me) = C[C@H](C(=O)[*:3])[C@@H](N[*:1])C(=O)[*:2]; d(γGlu) = O=C(O)[C@@H](CCC(=O)[*:2])N[*:1]; NMeDha = C=C(NC)C(=O)O
The label is true for IC50 below 0.008 µM and false for IC50 equal to or exceeding 0.008 µM.

Reference set, count: 5
- C=C1C(=O)N[C@H](C)C(=O)N[C@@H](CC(C)C)C(=O)N[C@@H](C(=O)O)[C@H](C)C(=O)N[C@@H](Cc2c[nH]c3ccccc23)C(=O)N[C@@H](/C=C/C(C)=C/[C@H](C)[C@H](Cc2ccccc2)OC)[C@H](C)C(=O)N[C@@H](C(=O)O)CCC(=O)N1C [compound 8, LW, reference compound] (W[Adda][d(γGlu)][NMeDha][dA]L[dAsp(3S-Me)]-OH; lactam N-7): true
- CC=C1C(=O)N[C@@H](C(=O)O)[C@H](C)C(=O)N[C@@H](CCCNC(=N)N)C(=O)N[C@@H](/C=C/C(C)=C/[C@H](C)[C@H](Cc2ccccc2)OC)[C@H](C)C(=O)N[C@@H](C(=O)O)CCC(=O)N1C: false
- C=C1C(=O)N[C@H](C)C(=O)N[C@@H](Cc2ccc(O)cc2)C(=O)N[C@@H](C(=O)O)[C@H](C)C(=O)N[C@@H](CCCNC(=N)N)C(=O)N[C@@H](/C=C/C(C)=C/[C@H](C)[C@H](Cc2ccccc2)OC)[C@H](C)C(=O)N[C@@H](C(=O)OC)CCC(=O)N1C [compound 22, [D-Glu(OMe)^6]MC-YR]: false
- C=C1C(=O)N[C@H](C)C(=O)N[C@@H](Cc2ccc(O)cc2)C(=O)N[C@@H](C(=O)O)CC(=O)N[C@@H](CCCNC(=N)N)C(=O)N[C@@H](/C=C/C(C)=C/[C@H](C)[C@H](Cc2ccccc2)OC)[C@H](C)C(=O)N[C@@H](C(=O)O)CCC(=O)N1C [compound 14, [D-Asp^3]MC-YR]: false
- C=C1C(=O)N[C@H](C)C(=O)N[C@@H](CC(C)C)C(=O)N[C@@H](C(=O)O)[C@H](C)C(=O)N[C@@H](CCCNC(=N)N)C(=O)N[C@@H](/C=C/C(C)=C/[C@H](C)[C@H](Cc2ccccc2)OC)[C@H](C)C(=O)N[C@@H](C(=O)O)CCC(=O)N1C [compound 1, MC-LR, reference compound] (R[Adda][d(γGlu)][NMeDha][dA]L[dAsp(3S-Me)]-OH; lactam N-7): false

Proceed to the following item.
**Query** Bench note: check whether C/C=C1/NC(=O)CC[C@H](C(=O)O)NC(=O)[C@@H](C)[C@H](/C=C/C(C)=C/[C@H](C)[C@H](Cc2ccccc2)OC)NC(=O)[C@H](Cc2c[nH]c3ccccc23)NC(=O)C[C@H](C(=O)O)NC(=O)[C@H](CC(C)C)NC(=O)[C@@H](C)NC1=O [compound 9, [D-Asp^3,(E)-Dhb^7]-MC-LW] shows IC50 below 0.008 µM
**Result** true

====

# pIC50 annotations
system: OATP1B1; assay: in vitro; conditions: human
# pIC50 = -log10(concentration in molar units)

Below, each entry is followed by its recorded pIC50 result.
• C=C1C(=O)N[C@H](C)C(=O)N[C@@H](CC(C)CC)C(=O)N[C@@H](C(=O)O)CC(=O)N[C@@H](CCCNC(=N)N)C(=O)N[C@@H](/C=C/C(C)=C/[C@H](C)[C@H](Cc2ccccc2)OC)[C@H](C)C(=O)N[C@@H](C(=O)O)CCC(=O)N1C (stereo partly drawn) [compound 3, [D-Asp^3]MC-HilR] = 7.24
• C/C=C1/NC(=O)CC[C@H](C(=O)O)NC(=O)[C@@H](C)[C@H](/C=C/C(C)=C/[C@H](C)[C@H](Cc2ccccc2)OC)NC(=O)[C@H](Cc2c[nH]c3ccccc23)NC(=O)C[C@H](C(=O)O)NC(=O)[C@H](CCc2ccc(O)cc2)NC(=O)[C@@H](C)NC1=O [compound 20, [D-Asp^3,(E)-Dhb^7]MC-HtyW] = 8.31
• CO[C@@H](Cc1ccccc1)[C@@H](C)/C=C(C)/C=C/[C@@H]1NC(=O)[C@H](CCCCNC(=N)N)NC(=O)C[C@H](C(=O)O)NC(=O)[C@H](Cc2ccc(O)cc2)NC(=O)[C@@H](C)NC(=O)[C@H](CO)N(C)C(=O)CC[C@H](C(=O)O)NC(=O)[C@H]1C [compound 21, [D-Asp^3,MSer^7]MC-YHar] = 6.20

Consider the additional compound presented here.
**Query** Lab note: need pIC50 with OATP1B1 for entry C/C=C1/NC(=O)CC[C@H](C(=O)O)NC(=O)[C@@H](C)[C@H](/C=C/C(C)=C/[C@H](C)[C@H](Cc2ccccc2)OC)NC(=O)[C@H](CCCNC(=N)N)NC(=O)C[C@H](C(=O)O)NC(=O)[C@H](CC(C)CC)NC(=O)[C@@H](C)NC1=O (stereo partly drawn) [compound 4, [D-Asp^3,(E)-Dhb^7]MC-HilR] , please look it up.
**Result** 7.24
